# assayed.system: Cytochrome P450 2D6 (Homo sapiens, UniProt P10635)
# Sequence (P10635 whole entry): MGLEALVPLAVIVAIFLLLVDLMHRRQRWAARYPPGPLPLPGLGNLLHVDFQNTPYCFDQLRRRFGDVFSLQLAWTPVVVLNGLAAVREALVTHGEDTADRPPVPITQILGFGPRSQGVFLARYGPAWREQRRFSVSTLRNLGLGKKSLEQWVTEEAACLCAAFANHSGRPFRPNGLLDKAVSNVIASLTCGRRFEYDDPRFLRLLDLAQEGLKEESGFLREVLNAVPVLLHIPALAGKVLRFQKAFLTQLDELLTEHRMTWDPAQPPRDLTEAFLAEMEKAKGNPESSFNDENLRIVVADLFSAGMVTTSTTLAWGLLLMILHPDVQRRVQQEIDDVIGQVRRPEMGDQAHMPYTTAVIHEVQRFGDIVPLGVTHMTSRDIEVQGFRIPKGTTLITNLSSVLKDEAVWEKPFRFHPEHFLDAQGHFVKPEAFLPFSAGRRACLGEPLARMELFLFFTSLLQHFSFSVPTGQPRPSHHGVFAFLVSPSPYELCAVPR
pIC50: −log10 of the molar value.
Would you mind telling me the reported pIC50 of each entry?

INSERT INTO results (chemical_string, result_value) VALUES
  ('Nc1nc2ccc(S(=O)(=O)Cc3ccccc3)cc2s1', '4.60 to 5.00'),
  ('COC(=O)C1CCN(C(=O)c2ccc3nc(N)sc3c2)CC1', '4.60 to 5.00'),
  ('COc1ccc(CN(Cc2ccc(Cl)c(Cl)c2)C(=O)c2ccc3nc(N)sc3c2)cc1OC', '> 5.00');

Take each entry in turn and give its pIC50.
1. Nc1nc2ccc(SCc3ccc(C(=O)NCc4ccccc4)cc3)cc2s1
2. COC(=O)c1ccc(CNC(=O)c2ccc3nc(N)sc3c2)cc1

*A*
1: > 5.00; 2: < 4.60
